# SH2 binding enrichment values compiled below
Target: SHP2-C SH2
Assay: SH2 binding enrichment of the phosphorylated peptide, bacterial display (enrichment ratio); higher = better substrate or ligand; peptides without Tyr show the background
Give only the figure.

- SESSYYKSLNL [NGEF_Y289_A286S]: 0.623
- EPDSLYGCGGG [ATM_Y2019]: 0.854
- FRPPYYHRNCM [HGD_Y334]: 1.23
- GGGGSYNDFGN [HNRNPA1_Y312]: 0.659
- SLEKGYELPDG [ACTC1_Y242_S241G]: 0.847

If you can, please state the reported SH2 binding enrichment value of PYYTSYPPSPD [GDAP2_Y491] .
1.01

If you can, please state the reported SH2 binding enrichment value of EPSVPYRGTVF [GLI3_Y104] .
0.711

If you can, please state the reported SH2 binding enrichment value of IYLADYRIMEG [ALOX12B_Y318] .
1.1

If you can, please state the reported SH2 binding enrichment value of HLRAGYIIPLQ [GAA_Y822] .
3.2

If you can, please state the reported SH2 binding enrichment value of ISHVAYRVLGK [TRRAP_Y892] .
0.732

If you can, please state the reported SH2 binding enrichment value of LSKDLYLISQM [LARP4_Y141] .
1.08

If you can, please state the reported SH2 binding enrichment value of DPADRYLTEQY [CDKL5_Y286_C291Y] .
0.944

If you can, please state the reported SH2 binding enrichment value of PVDTYYDSTRG [DYNC2H1_Y2231_M2227V] .
0.667

If you can, please state the reported SH2 binding enrichment value of CTTIHYMYMCN [TP53_Y234_N235M] .
2.59

====

Biological target: c-Src SH2
Experiment: SH2 binding enrichment of the phosphorylated peptide, bacterial display (enrichment ratio); higher = better substrate or ligand; peptides without Tyr show the background
metric: SH2 binding enrichment
Give only the figure.

* IHETTYNSIKK [ACTA1_Y281_M285K] | 1.05
* ADRSCYDLSCH [GARS1_Y467] | 0.985
* NIFSFYLSRDP [CTSD_Y232] | 1.09
* QGRQTYLPQPA [DDR2_Y813] | 0.553
* PTTKTYFPRFD [HBA1_Y43_H46R] | 0.446

If you can, please state the reported SH2 binding enrichment value of NFFDTYIKTCL [IQGAP2_Y1445_YF] .
0.528

If you can, please state the reported SH2 binding enrichment value of ESLRSYDVMDV [KCNQ2_Y562_P561S] .
9.05

====

System: c-Abl (mouse)
Assay: phosphorylation enrichment, bacterial display (enrichment ratio); higher = better substrate or ligand; peptides without Tyr show the background
# phosphorylation enrichment values compiled below
Give only the figure.

• PSGPMYRGAVP [ASAH1_Y43_T42M] = 0.68
• FGTAQYCCRMG [LRRK2_Y2023_I2020T_YF] = 1.28
• WRPFGYPCRRR [BCS1L_Y181_R183C] = 0.544
• GLRYGYGGLGG [KRTAP20-2_Y15_V17G] = 0.431
• SLIDGYYRLTE [JAK2_Y372_A377E] = 0.533
• ETKENYGKTLK [CHL1_Y291] = 0.414
• TGQEEYSAMRD [KRAS_Y64_A59T] = 0.642
• LARHMYDKEYY [MET_Y1230_D1228H] = 0.687

Please state recorded phosphorylation enrichment (tested on c-Abl (mouse)) of PNEAVYTKMMT [G6PD_Y401]
0.674

Please state recorded phosphorylation enrichment (tested on c-Abl (mouse)) of STEEQYRIRQV [EFHC1_Y115]
0.43

Please state recorded phosphorylation enrichment (tested on c-Abl (mouse)) of GCVSKYSGVFS [TUBGCP6_Y1624]
0.619

Please state recorded phosphorylation enrichment (tested on c-Abl (mouse)) of RILDVYIFLGP [GAA_Y340_G335R]
0.543

Please state recorded phosphorylation enrichment (tested on c-Abl (mouse)) of VTDGKYAFKPK [GTF2E2_Y137_I133T]
0.575

Please state recorded phosphorylation enrichment (tested on c-Abl (mouse)) of QAPPVYLDVLG [NTRK1_Y791]
0.954

====

# phosphorylation enrichment values compiled below
Biological target: Fes (UniProt P07332)
Sequence (P07332 whole entry, looked up): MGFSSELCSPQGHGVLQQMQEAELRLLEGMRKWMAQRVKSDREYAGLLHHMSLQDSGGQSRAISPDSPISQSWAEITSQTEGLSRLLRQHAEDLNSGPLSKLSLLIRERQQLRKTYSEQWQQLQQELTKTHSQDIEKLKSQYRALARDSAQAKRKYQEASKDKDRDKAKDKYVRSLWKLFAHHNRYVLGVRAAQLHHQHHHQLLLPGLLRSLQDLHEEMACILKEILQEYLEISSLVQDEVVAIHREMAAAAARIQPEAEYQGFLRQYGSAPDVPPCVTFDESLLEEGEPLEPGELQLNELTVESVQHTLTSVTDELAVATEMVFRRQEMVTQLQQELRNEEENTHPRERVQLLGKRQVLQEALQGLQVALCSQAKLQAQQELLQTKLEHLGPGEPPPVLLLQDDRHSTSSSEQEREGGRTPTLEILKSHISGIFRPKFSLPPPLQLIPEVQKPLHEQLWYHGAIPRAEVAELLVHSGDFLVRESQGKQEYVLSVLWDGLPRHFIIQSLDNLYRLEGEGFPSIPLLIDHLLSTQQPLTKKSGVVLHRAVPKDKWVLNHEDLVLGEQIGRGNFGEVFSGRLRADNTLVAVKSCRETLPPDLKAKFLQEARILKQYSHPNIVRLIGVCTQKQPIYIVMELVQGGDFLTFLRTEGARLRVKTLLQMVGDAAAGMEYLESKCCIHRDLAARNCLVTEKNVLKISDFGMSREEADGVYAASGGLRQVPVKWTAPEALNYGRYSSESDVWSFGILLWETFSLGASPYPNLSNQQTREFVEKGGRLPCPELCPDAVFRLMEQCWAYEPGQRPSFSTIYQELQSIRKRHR
Test: phosphorylation enrichment, bacterial display (enrichment ratio); higher = better substrate or ligand; peptides without Tyr show the background
Give only the figure.

Example cases with answers are listed next.
* GGQEDYDRLRP [RAC3_Y64_A59G] | 0.948
* EEKKKYYDTKI [CASP5_Y103] | 0.853

If you can, please state the reported phosphorylation enrichment value of LDFNEYVRDLN [HPRT1_Y198_F199V_YF] .
1.47

If you can, please state the reported phosphorylation enrichment value of LEYNEYFRDLN [HPRT1_Y198_D194E] .
2.09

If you can, please state the reported phosphorylation enrichment value of SQSKGYRPKLF [SIPA1L3_Y1376_G1371S_YF] .
0.549

If you can, please state the reported phosphorylation enrichment value of ALAAPYVLFPS [CEFIP_Y1332_G1337S_YF] .
0.822

If you can, please state the reported phosphorylation enrichment value of AIYRRYSKFFD [SH3PXD2B_Y45] .
1.03

If you can, please state the reported phosphorylation enrichment value of IRKKFYRAILE [CHD7_Y1218_Q1214R_YF] .
0.62

If you can, please state the reported phosphorylation enrichment value of MTKEQYIKMNQ [ARFGEF2_Y797_R802Q] .
0.805

If you can, please state the reported phosphorylation enrichment value of QDTSRYTVCNL [BIRC3_Y245_S248C] .
0.815

If you can, please state the reported phosphorylation enrichment value of FFRDGCMPRQF [GSS_Y270_Y270C_YF] .
1.2

If you can, please state the reported phosphorylation enrichment value of LARHMYDKEFF [MET_Y1230_D1228H_YF] .
1.08

If you can, please state the reported phosphorylation enrichment value of EYKKKYSDADI [CKAP5_Y1860] .
0.819

====

System: Fer (mouse)
Experiment: phosphorylation enrichment, bacterial display (enrichment ratio); higher = better substrate or ligand; peptides without Tyr show the background
metric: phosphorylation enrichment
Give only the figure.

- PNATLYKMTSI [SERPINA7_Y40_S43T]: 0.477

Turning now to a further record.
If you can, please state the reported phosphorylation enrichment value of STGSRYQPLAS [NCAPD2_Y1325] .
0.423

====

System: c-Src
Experiment: phosphorylation enrichment, bacterial display (enrichment ratio); higher = better substrate or ligand; peptides without Tyr show the background
metric: phosphorylation enrichment
Give only the figure.

Example cases with answers are listed next.
* LALTVYADCLA [ABCA4_Y2063_G2059A] | 0.62
* LYSNAYLSDLA [ALDH1A1_Y119_N121S] | 1.96

Please state recorded phosphorylation enrichment (tested on c-Src) of KMATAYIRRMS [BCO1_Y264]
0.514

Please state recorded phosphorylation enrichment (tested on c-Src) of NFFDTYIKTCL [IQGAP2_Y1445_YF]
0.54

Please state recorded phosphorylation enrichment (tested on c-Src) of LLKMMYLMLDN [STAT1_Y203_K201M]
0.611

Please state recorded phosphorylation enrichment (tested on c-Src) of LEYNEYFRDLN [HPRT1_Y198_D194E]
1.14

Please state recorded phosphorylation enrichment (tested on c-Src) of STGSRYQPLAS [NCAPD2_Y1325]
0.423

Please state recorded phosphorylation enrichment (tested on c-Src) of QAPPVYLDVLG [NTRK1_Y791]
0.727

Please state recorded phosphorylation enrichment (tested on c-Src) of FGSGNYNVFGN [HNRNPA2B1_Y300_D302V_YF]
0.412

Please state recorded phosphorylation enrichment (tested on c-Src) of NFDRIYIYHLR [MYOF_Y1137_V1136I]
0.923

Please state recorded phosphorylation enrichment (tested on c-Src) of MSNFAYVKREV [SCN1A_Y1694]
0.388

Please state recorded phosphorylation enrichment (tested on c-Src) of WHHIFYNELRV [ACTG1_Y91_T89I]
0.407

Please state recorded phosphorylation enrichment (tested on c-Src) of GFRPVYSEDEQ [CHST6_Y362_YF]
0.836

Please state recorded phosphorylation enrichment (tested on c-Src) of TNEYEYDELIV [TGM1_Y136_D132N]
0.981

====

Molecular target: EPHB2 (UniProt P29323)
Sequence (P29323 whole entry, looked up): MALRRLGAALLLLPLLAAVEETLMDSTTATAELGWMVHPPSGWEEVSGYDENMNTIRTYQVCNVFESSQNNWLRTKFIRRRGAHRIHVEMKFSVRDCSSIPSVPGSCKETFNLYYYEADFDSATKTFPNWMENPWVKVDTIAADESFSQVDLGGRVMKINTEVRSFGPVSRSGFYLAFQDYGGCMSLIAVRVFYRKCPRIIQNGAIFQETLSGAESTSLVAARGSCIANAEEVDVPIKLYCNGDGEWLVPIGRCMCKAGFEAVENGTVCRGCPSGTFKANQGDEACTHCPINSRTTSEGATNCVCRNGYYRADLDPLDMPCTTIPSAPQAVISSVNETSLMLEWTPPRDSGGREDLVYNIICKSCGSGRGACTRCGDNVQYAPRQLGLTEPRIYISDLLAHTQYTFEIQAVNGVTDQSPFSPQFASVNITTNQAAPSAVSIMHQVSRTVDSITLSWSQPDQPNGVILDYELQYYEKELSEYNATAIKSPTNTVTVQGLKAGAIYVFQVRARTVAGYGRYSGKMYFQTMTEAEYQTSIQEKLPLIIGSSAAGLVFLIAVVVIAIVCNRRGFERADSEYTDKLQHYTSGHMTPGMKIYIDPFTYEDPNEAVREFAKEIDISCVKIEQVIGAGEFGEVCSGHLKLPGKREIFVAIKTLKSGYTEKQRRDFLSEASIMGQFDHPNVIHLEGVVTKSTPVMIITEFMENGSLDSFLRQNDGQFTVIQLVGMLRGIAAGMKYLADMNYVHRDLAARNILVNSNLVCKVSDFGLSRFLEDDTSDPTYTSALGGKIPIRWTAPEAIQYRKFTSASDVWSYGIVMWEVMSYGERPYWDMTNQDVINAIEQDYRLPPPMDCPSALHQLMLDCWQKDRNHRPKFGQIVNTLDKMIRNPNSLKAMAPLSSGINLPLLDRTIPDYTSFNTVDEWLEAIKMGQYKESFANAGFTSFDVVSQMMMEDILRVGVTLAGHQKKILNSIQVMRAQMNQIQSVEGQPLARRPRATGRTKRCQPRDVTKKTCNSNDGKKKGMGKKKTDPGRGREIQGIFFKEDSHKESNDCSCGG
Test: phosphorylation enrichment, bacterial display (enrichment ratio); higher = better substrate or ligand; peptides without Tyr show the background
Label Yes when phosphorylation enrichment >= 0.6; otherwise No.

Observe how each entry below is paired with its result.
* CENCHYPILPL [LCK_Y25_V28L] | No
* LEAVSYSSRYA [RNLS_Y190] | No
* NRLTDYFELLL [BBS10_Y536_P539L_YF] | Yes
* EQPNPYMVLDI [ROCK2_Y1197_S1194P] | No
* PVDGEYFTLQI [TP53_Y327_L323V] | Yes

Determine whether measured phosphorylation enrichment meets or exceeds 0.6 for KVKPIYFHTRG [AR_Y916_Q920R]
No

Determine whether measured phosphorylation enrichment meets or exceeds 0.6 for RVNSAYQEKVS [ACAN_Y100_D102E]
No

Determine whether measured phosphorylation enrichment meets or exceeds 0.6 for TLNHQYDYTFD [CSNK1A1_Y292]
Yes

Determine whether measured phosphorylation enrichment meets or exceeds 0.6 for RHFTTYDTNGR [CLCA1_Y665_Y661H]
Yes

Determine whether measured phosphorylation enrichment meets or exceeds 0.6 for CLEKEYFDQHF [NPC1_Y394_R389C]
No
